Reference for the values: ChEMBL document CHEMBL1201862

compounds and their reported GI50
- Tested on: A549
- assay text: NCI tumour cell line growth inhibition, 48 h
Activity calls are given as the source filed them. Cut-off read from the data, not from the text of the source: active = GI50 up to about 1.1 µM and inactive = higher.

Consider the worked cases shown below.
C=CC[C@H]1O[Si](C(C)(C)C)(C(C)(C)C)[C@H](C)[C@H]1C ... > 100 µM (inactive)
COc1ccc(OC)c(C2CCc3nc4nc(N)nc(N)c4cc3C2)c1 (stereo not drawn) ... 14.7 µM (inactive)

Given item CC(=O)N1C(OC(C)C)CC(C)N1c1ccccc1 (stereo not drawn) , the value recorded as its GI50 is > 10 µM (inactive)

====

- System: SF-539
- assay text: NCI tumour cell line growth inhibition, 48 h
Active and inactive are the calls of the source. Cut-off read from the data, not from the text of the source: active = GI50 up to about 1.1 µM and inactive = higher.
recorded endpoint: GI50

Consider the worked cases shown below.
CSc1ccc(-c2cc(-c3nc4ccccc4[nH]3)no2)cc1 ... 24.7 µM (inactive)
C1CN(c2nc3c(nnc4nc(N5CCOCC5)sc43)s2)CCO1 ... > 100 µM (inactive)
CCOC(=O)/C=C(\C)Sc1cc(O)c2ccccc2c1O ... 21.5 µM (inactive)
COC(OC)(c1ccccc1)C(Br)Br ... > 10 µM (inactive)
Cn1c(SCc2c[nH]c3ccccc23)nnc1-c1ccc(Cl)cc1Cl ... 3.14 µM (inactive)
NC1N=Nc2ccccc21 (configuration not stated) ... > 100 µM (inactive)

Form: item COC(=O)c1c(-c2ccccc2)cc2c3cc(-c4ccccc4)c(C(=O)OC)n3c3ccccc3n12 ; test system SF-539; GI50: > 100 µM (inactive)

Form: item NCCC1CN(C(=O)OCc2ccccc2)c2ccccc21 (configuration not stated) ; test system SF-539; GI50: 3.44 µM (inactive)

Form: item COc1ccc2c(c1)C=C([N+](=O)[O-])C(C1OC(C)(C)OC1C1COC(C)(C)O1)O2 (configuration not stated) ; test system SF-539; GI50: 5.66 µM (inactive)

Form: item O=[N+]([O-])c1ccc(C2CC(c3ccc(NCc4nc5ccccc5[nH]4)cc3)=NO2)cc1 (configuration not stated) ; test system SF-539; GI50: > 100 µM (inactive)

Form: item CCCCCCCCCCCCCC(=S)N/C=C/OC ; test system SF-539; GI50: 66.5 µM (inactive)

Form: item COc1ccc(/C=C2\CN(C)Cc3c2nc(N)nc3-c2ccc(OC)cc2)cc1 ; test system SF-539; GI50: > 100 µM (inactive)

Form: item NCCN/C(=N\c1ccccc1)Nc1ccccc1 ; test system SF-539; GI50: 70.8 µM (inactive)

Form: item CN(CC(=O)O)S(=O)(=O)c1ccc(Cl)cc1 ; test system SF-539; GI50: > 100 µM (inactive)

Form: item COc1ccc(C2COc3c(ccc(OC)c3OC)C2=O)cc1OC (configuration not stated) ; test system SF-539; GI50: > 100 µM (inactive)

Form: item CCN(C(=O)N[C@@H](C)C(=O)N[C@@H](Cc1ccccc1)C(=O)OC)c1ccccc1 ; test system SF-539; GI50: 34.5 µM (inactive)

Form: item O=S(=O)(SC1=NCCN1)c1cccc2ccccc12 ; test system SF-539; GI50: 20.3 µM (inactive)

Form: item O=C1O/C(=C\C=C\CO)C=C1/C=C/CO [LISSOCLINOLIDE] ; test system SF-539; GI50: 24.1 µM (inactive)

Form: item Cc1ccc(NC(=O)CC(=O)n2nc(C)c(/N=N/c3cccc(C)c3)c2C)cc1 ; test system SF-539; GI50: > 100 µM (inactive)

Form: item COc1cc([C@H]2OC[C@H]3[C@@H]2CO[C@@H]3c2cc(OC)c3c(c2)OCO3)cc(OC)c1OC ; test system SF-539; GI50: > 100 µM (inactive)

Form: item COc1ccccc1NS(=O)(=O)c1cc(C(C)(C)C)ccc1OCCOc1ccc(C(C)(C)C)cc1S(=O)(=O)Nc1ccccc1OC ; test system SF-539; GI50: > 100 µM (inactive)

Form: item C[n+]1cn(-c2nc3ccccc3nc2[N-]S(=O)(=O)c2ccccc2)c2ccccc21 ; test system SF-539; GI50: > 100 µM (inactive)
